Tested on: HEK293
Experiment: Cytotoxic Profiling of Annotated Libraries Using Quantitative High-Throughput Screening (AID 1296008); note: % is set by controls: 0 for no effect and ±100 for the full control effect; nearly all actives have a fitted effect of over 60% in size
Settings: Five cell lines viability, CellTiter-Glo ATP luminescence, 48-72 h; hits give low values
Inconclusive results are not listed.
ENDPOINT NAME: max response (%)
State the answer as a number, implicitly in %.

C[C@@H](CC[C@@H]1[C@@]2(C)CCCC(C)(C)C2CC[C@@]1(C)O)CC(=O)O (stereo not given in full) :: -2.2

Recall the recorded max response for C=CCc1cc(OC)c(OC(C)C(O)c2ccc(O)c(OC)c2)c(OC)c1 (stereo not given) with HEK293 and state it. 0.874

Recall the recorded max response for CC1CC2OCC3(O)CCC(O)C(C14CC(c1ccoc1)OC4=O)C23CO (stereo not given) with HEK293 and state it. -3.58

Recall the recorded max response for COC(=O)C1=CO[C@@H](O[C@@H]2O[C@H](CO)[C@@H](O)[C@H](O)[C@H]2O)C2C1CC(O)C2C (stereo not given in full) with HEK293 and state it. 0.336

Recall the recorded max response for CCCc1[nH]nc2c1C(c1cc(Cl)cc(Cl)c1O)C(C#N)=C(N)O2 (stereo not given) with HEK293 and state it. -17.1
